# Assay Summary: Plasma pharmacokinetics in mice (oral and subcutaneous)
# Assay type: in vivo, BALB/c mice
# Recorded Conditions: female, BALB/c, mouse, plasma, SC, nominal dose 25 mg/kg (administered 27.5)
Assay Endpoint: Cmax (ng/mL)
Report the figure in ng/mL without appending any unit label.

QUERY: May I ask what Cmax has been recorded for COC(=O)Nc1nc2ccc([S+]([O-])c3ccccc3)cc2[nH]1 (stereo not shown) ?
RESULT: 1450

---

# Assay Summary: Plasma pharmacokinetics in mice (oral and subcutaneous)
# Assay type: in vivo, BALB/c mice
# Recorded Conditions: female, BALB/c, mouse, plasma, SC, nominal dose 1 mg/kg (administered 1.0)
Assay Endpoint: AUC(0-t) (ng·h/mL)
Hi! Could you send only the number? It should be in ng·h/mL, unit omitted.

QUERY: What value of AUC(0-t) has been reported for the following compound? COC(=O)Nc1nc2ccc([S+]([O-])c3ccccc3)cc2[nH]1 (stereo not shown) [oxfendazole]
RESULT: 1280

---

# Assay Summary: Plasma pharmacokinetics in mice (oral and subcutaneous)
# Type: in vivo, BALB/c mice
# Recorded Conditions: female, BALB/c, mouse, plasma, PO, nominal dose 25 mg/kg (administered 26.3)
Assay Endpoint: AUC(0-t) (ng·h/mL)
Write it as a number; the unit ng·h/mL goes unstated.

QUERY: Value lookup for AUC(0-t); key = COC(=O)Nc1nc2ccc([S+]([O-])c3ccccc3)cc2[nH]1 (stereo not shown) [oxfendazole]
RESULT: 50300

---

# Assay Summary: Plasma pharmacokinetics in mice (oral and subcutaneous)
# Type: in vivo, BALB/c mice
# Recorded Conditions: female, BALB/c, mouse, plasma, PO, nominal dose 5 mg/kg (administered 4.8)
Assay Endpoint: AUC(0-t)
Quick note: number first, unit second.

QUERY: Any idea what its AUC(0-t) is? The compound is COC(=O)Nc1nc2ccc([S+]([O-])c3ccccc3)cc2[nH]1 (stereo not shown)
RESULT: 14700 ng·h/mL

---

# Assay Summary: Plasma pharmacokinetics in mice (oral and subcutaneous)
# Format: in vivo, BALB/c mice
# Recorded Conditions: female, BALB/c, mouse, plasma, SC, nominal dose 1 mg/kg (administered 1.0), read-out: T1/2 (converted)
Assay Endpoint: half-life
Could you write the number and then its unit?

QUERY: Can you look up the measured half-life of COC(=O)Nc1nc2ccc([S+]([O-])c3ccccc3)cc2[nH]1 (stereo not shown) for me?
RESULT: 24.8 h

---

# Assay Summary: Plasma pharmacokinetics in mice (oral and subcutaneous)
# Type: in vivo, BALB/c mice
# Recorded Conditions: female, BALB/c, mouse, plasma, PO, nominal dose 5 mg/kg (administered 4.8)
Assay Endpoint: Cmax
Number plus unit, in that order.

QUERY: What does the data say about its Cmax? Entry: COC(=O)Nc1nc2ccc([S+]([O-])c3ccccc3)cc2[nH]1 (stereo not shown)
RESULT: 2530 ng/mL

---

# Recorded Conditions: human, po
Assay Endpoint: bioavailability (%)
Supply the numeric figure in %, leaving out any unit text.

QUERY: Quick one: bioavailability for COC(=O)Nc1nc2ccc([S+]([O-])c3ccccc3)cc2[nH]1 (stereo not shown) [oxfendazole] ?
RESULT: 30

---

# Assay Summary: Plasma pharmacokinetics in mice (oral and subcutaneous)
# Assay type: in vivo, BALB/c mice
# Recorded Conditions: female, BALB/c, mouse, plasma, SC, nominal dose 25 mg/kg (administered 27.5)
Assay Endpoint: AUC(0-t) (ng·h/mL)
Report the figure in ng·h/mL without appending any unit label.

QUERY: What does the record list as AUC(0-t) for COC(=O)Nc1nc2ccc([S+]([O-])c3ccccc3)cc2[nH]1 (stereo not shown) ?
RESULT: 20800

---

Please respond with reported MTT Reduction (%) for every item in the list.
# Test system: Onchocerca gutturosa adult male worms
# Assay Summary: O. gutturosa adult worm MTT/formazan viability assay
# Recorded Conditions: 3.1 x 10^-6 M, 120 h
Provide only the numeric value, understood in %.

QUERY: # get_value(readout='MTT Reduction (%)', item= `CCCSc1ccc2nc(NC(=O)OC)[nH]c2c1` )
RESULT: 19

QUERY: Consider the compound Cl.Cl.NCCS[As](SCCN)c1ccc(Nc2nc(N)nc(N)n2)cc1 [Immiticide, melarsomine dihydrochloride] and give its measured MTT Reduction (%).
RESULT: 94

QUERY: Any idea what its MTT Reduction (%) is? The compound is `COC(=O)Nc1nc2cc(C(=O)c3ccc(F)cc3)ccc2[nH]1`
RESULT: 3

QUERY: Using the record for COC(=O)Nc1nc2ccc([S+]([O-])c3ccccc3)cc2[nH]1 (stereo not shown) , report its MTT Reduction (%).
RESULT: 17

---

I'd appreciate it if you could supply Motility Reduction (%) values for the items below.
# System: Onchocerca gutturosa adult male worms
# Assay Summary: O. gutturosa adult male worm 5-day motility assay
# Recorded Conditions: 1.25 x 10^-5 M, 120 h
The response must be a number in % with no trailing unit.

QUERY: Entry COC(=O)Nc1nc2cc(C(=O)c3ccc(F)cc3)ccc2[nH]1 [flubendazole] , system Onchocerca gutturosa adult male worms: what Motility Reduction (%) was measured?
RESULT: 51

QUERY: Report Motility Reduction (%) for COC(=O)Nc1nc2ccc([S+]([O-])c3ccccc3)cc2[nH]1 (stereo not shown) [oxfendazole] tested on Onchocerca gutturosa adult male worms.
RESULT: 40

QUERY: Please state recorded Motility Reduction (%) (tested on Onchocerca gutturosa adult male worms) of Cl.Cl.NCCS[As](SCCN)c1ccc(Nc2nc(N)nc(N)n2)cc1 [Immiticide, melarsomine dihydrochloride]
RESULT: 100

QUERY: Look up Motility Reduction (%) with Onchocerca gutturosa adult male worms for this molecule: CCCSc1ccc2nc(NC(=O)OC)[nH]c2c1 [albendazole]
RESULT: 40

---

# Recorded Conditions: human
Assay Endpoint: clearance

QUERY: GET /values?readout=clearance&item= COC(=O)Nc1nc2ccc([S+]([O-])c3ccccc3)cc2[nH]1 (stereo not shown) [oxfendazole]
RESULT: ~0.4 mL/min/kg

---

# Assay Summary: Plasma pharmacokinetics in mice (oral and subcutaneous)
# Type: in vivo, BALB/c mice
# Recorded Conditions: female, BALB/c, mouse, plasma, oral administration of 5 mg/kg
Assay Endpoint: Cmax (µM)
Provide the reading as a plain figure in µM.

QUERY: Would you mind telling me what Cmax value was observed for COC(=O)Nc1nc2ccc([S+]([O-])c3ccccc3)cc2[nH]1 (stereo not shown) [oxfendazole] ?
RESULT: 8

---

Kindly supply the reported Motility Reduction (%) values for the records listed here.
# Tested on: Onchocerca gutturosa adult male worms
# Assay Summary: O. gutturosa adult male worm 5-day motility assay
# Recorded Conditions: 7.8 x 10^-7 M, 72 h
Please reply with the bare figure in % and do not write the unit itself.

QUERY: What value of Motility Reduction (%) has been recorded for this entry: Cl.Cl.NCCS[As](SCCN)c1ccc(Nc2nc(N)nc(N)n2)cc1 [Immiticide, melarsomine dihydrochloride]
RESULT: 93

QUERY: Sample `COC(=O)Nc1nc2cc(C(=O)c3ccc(F)cc3)ccc2[nH]1` — what was its Motility Reduction (%)?
RESULT: 13

QUERY: Entry COC(=O)Nc1nc2ccc([S+]([O-])c3ccccc3)cc2[nH]1 (stereo not shown) has what Motility Reduction (%)?
RESULT: 20

QUERY: Value lookup for Motility Reduction (%); key = `CCCSc1ccc2nc(NC(=O)OC)[nH]c2c1`
RESULT: 13

---

# System: Onchocerca gutturosa adult male worms
# Assay Summary: O. gutturosa adult male worm 5-day motility assay
# Recorded Conditions: 3.1 x 10^-6 M, 96 h
Assay Endpoint: Motility Reduction (%)
Answer format: numeric, % implied, no suffix.

QUERY: Please state recorded Motility Reduction (%) (tested on Onchocerca gutturosa adult male worms) of COC(=O)Nc1nc2ccc([S+]([O-])c3ccccc3)cc2[nH]1 (stereo not shown) [oxfendazole]
RESULT: 31

QUERY: I'm curious: which Motility Reduction (%) was measured for COC(=O)Nc1nc2cc(C(=O)c3ccc(F)cc3)ccc2[nH]1 [flubendazole] tested on Onchocerca gutturosa adult male worms?
RESULT: 38

QUERY: # query: Motility Reduction (%) | item CCCSc1ccc2nc(NC(=O)OC)[nH]c2c1 [albendazole] | system: Onchocerca gutturosa adult male worms
RESULT: 26

QUERY: Param readout= Motility Reduction (%); system= Onchocerca gutturosa adult male worms; entry= Cl.Cl.NCCS[As](SCCN)c1ccc(Nc2nc(N)nc(N)n2)cc1 [Immiticide, melarsomine dihydrochloride] ; returns value.
RESULT: 100

---

# Assay Summary: Plasma pharmacokinetics in mice (oral and subcutaneous)
# Assay type: in vivo, BALB/c mice
# Recorded Conditions: female, BALB/c, mouse, plasma, SC, nominal dose 25 mg/kg (administered 27.5)
Assay Endpoint: Tmax (h)
Write it as a number; the unit h goes unstated.

QUERY: Can you share its Tmax? I mean this compound: COC(=O)Nc1nc2ccc([S+]([O-])c3ccccc3)cc2[nH]1 (stereo not shown) [oxfendazole]
RESULT: 2.33
